target: Receptor tyrosine-protein kinase erbB-2 (Homo sapiens); assay: reducers of endogenous Her2 protein level, primary screen, SKBR3 breast tumor cells, AlphaScreen, ATP viability (AID 461); conditions: 18-24 h, at 10 µM, active compounds read low;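 further: lower value means less Her2 protein in the cells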
READOUT TYPE: Her2 level (%)
One number for each entry, in %.

# example entries with known answers
COMPOUND	MEASURED ON	RESULT VALUE
COc1ccc2cc(CN(CCO)C(=O)c3ccc(Br)cc3)c(=O)[nH]c2c1	Receptor tyrosine-protein kinase erbB-2 (Homo sapiens)	81.5
COCCNC(=O)c1ccc(CS(=O)(=O)c2ccc(OC)cc2)o1	Receptor tyrosine-protein kinase erbB-2 (Homo sapiens)	121
Cn1c(=O)[nH]c(=O)c2c1nc(CN1CCN(c3cccc(Cl)c3)CC1)n2CCc1ccccc1	Receptor tyrosine-protein kinase erbB-2 (Homo sapiens)	96
O=C(CSc1nnc(C2COc3ccccc3O2)o1)N1CCCc2ccccc21 (configuration not stated)	Receptor tyrosine-protein kinase erbB-2 (Homo sapiens)	78
COC(=O)c1cn(-c2ccccc2)nc1C(=O)OC	Receptor tyrosine-protein kinase erbB-2 (Homo sapiens)	89.5
N#CC1=C(N)N(c2ccccc2)C(c2ccco2)C1(C#N)C#N (configuration not stated)	Receptor tyrosine-protein kinase erbB-2 (Homo sapiens)	99.5
Cc1ccc(C(C)C)c(OCc2nnc(SCC(=O)Nc3ncc(C)s3)n2C)c1	Receptor tyrosine-protein kinase erbB-2 (Homo sapiens)	86
CCOC(=O)CCC(=O)Nc1ccc(S(=O)(=O)N2CCCC2)cc1	Receptor tyrosine-protein kinase erbB-2 (Homo sapiens)	102

State the recorded Her2 level for every item in the following list.
1. CC1CN(c2nc3ccccc3nc2C(C#N)C(=O)OC2CCCCC2)CC(C)O1 (configuration not stated)
2. O=C1c2ccccc2C(=O)N1OCc1ccccc1
3. CCOC(=O)c1cnc(-n2nc(C)cc2C)nc1Nc1ccc(N(C)C)cc1
4. CCOC(=O)CSc1nnc(CNC(=O)c2cccs2)n1-c1cc(OC)ccc1OC
5. COc1ccc(N(CC(=O)N2CCCCC2)S(=O)(=O)c2ccccc2)c(OC)c1
6. C=CCSc1nc2c(c(=O)[nH]c(=O)n2C)n1CC

Response given:
1. 97
2. 91.5
3. 75.5
4. 94
5. 94.5
6. 74

Each compound below has a recorded value; state its Her2 level.
1. CS(=O)(=O)c1ncc(Cl)c(C(=O)Nc2ccc(N3CCOCC3)cc2)n1
2. Cc1occc1C(=O)Nc1cccc2ccccc12
3. CCn1ncc(C2=NOC(C(=O)Nc3ccc4c(c3)OCO4)C2)c1C (configuration not stated)
4. COC(=O)c1cc(=O)n2c(-c3ccc(OC)cc3)csc2n1
5. CC(C)C(c1nnnn1C1CCCC1)N1CCN(C(=O)c2ccco2)CC1 (configuration not stated)

Response given:
[8, 75.5, 139, 97.5, 96]

Please supply Her2 level for each of the following items, keeping them in order.
1. COc1ccc(C2C(C(C)=O)=C(O)C(=O)N2C)c(OC)c1 (configuration not stated)
2. CCc1ccc(NS(=O)(=O)c2ccc3[nH]cc(C(=O)N4CCCCC4)c(=O)c3c2)cc1
3. CCOC(=O)N1CCC(NC(=O)CCC(=O)N2CC(C)Oc3ccc(Cl)cc32)CC1 (configuration not stated)

Response given:
1. 104
2. 92
3. 96

###

assay: growth inhibitors of H69AR lung tumor, primary screen, human, duplicate replicates (AID 580); details: H69AR lung tumor cells viability, ATP luminescence, 72 h; at 10 µM; active compounds read low;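 further: 100% = mean luminescence of untreated wells and 0% = no signal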
READOUT TYPE: viability (%)
Give bare numbers, in %.

COMPOUND	READOUT TYPE	UNIT NAME	RESULT VALUE
CCOC(=O)c1ccc(N=Cc2nc(-c3ccccc3)oc2OC(C)=O)cc1	viability	%	17.9
Cn1c(=O)n(CCC(=O)O)c2ccccc21	viability	%	97.2
N#Cc1ccccc1Cn1c(=O)n(Cc2ccc(C(=O)NCc3ccco3)cc2)c(=O)c2ccccc21	viability	%	11
COc1ccc(/C(O)=C2/C(=O)C(=O)N(Cc3cccnc3)C2c2ccncc2)cc1F (stereo not given)	viability	%	97.4
CC(C)(C)c1ccc(-c2nnc(SCCC#N)n2C2CCCC2)cc1	viability	%	78.8

Below are 3 compounds. Give each one its viability.
1. Cc1ccccc1OCc1nnc(SCC(=O)NCc2ccccc2)n1C
2. CCN(CC)S(=O)(=O)c1cccc(-c2nnc(SCCOc3ccccc3C)o2)c1
3. N#CC(C(=O)CCN1C(=O)C2CC=CCC2C1=O)c1nc2ccccc2[nH]1 (stereo not given)

Response given:
1: 104; 2: 87.9; 3: 91.1

Report viability for every entry below.
1. O=C(CSc1nnc(-c2ccncc2)o1)Oc1ccccc1
2. CC[C@H](C)C(=O)O[C@H]1C[C@@H](C)C=C2C=C[C@H](C)[C@H](CC[C@@H]3C[C@@H](O)CC(=O)O3)[C@H]21

Response given:
1. 102
2. 72.2

###

molecular target: Receptor tyrosine-protein kinase erbB-2 (Homo sapiens) (UniProt P04626); assay: reducers of endogenous Her2 protein level, primary screen, SKBR3 breast tumor cells, AlphaScreen, ATP viability (AID 461); settings: 18-24 h, at 10 µM, active compounds read low;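 further: lower value means less Her2 protein in the cells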
Sequence (P04626 whole entry, looked up): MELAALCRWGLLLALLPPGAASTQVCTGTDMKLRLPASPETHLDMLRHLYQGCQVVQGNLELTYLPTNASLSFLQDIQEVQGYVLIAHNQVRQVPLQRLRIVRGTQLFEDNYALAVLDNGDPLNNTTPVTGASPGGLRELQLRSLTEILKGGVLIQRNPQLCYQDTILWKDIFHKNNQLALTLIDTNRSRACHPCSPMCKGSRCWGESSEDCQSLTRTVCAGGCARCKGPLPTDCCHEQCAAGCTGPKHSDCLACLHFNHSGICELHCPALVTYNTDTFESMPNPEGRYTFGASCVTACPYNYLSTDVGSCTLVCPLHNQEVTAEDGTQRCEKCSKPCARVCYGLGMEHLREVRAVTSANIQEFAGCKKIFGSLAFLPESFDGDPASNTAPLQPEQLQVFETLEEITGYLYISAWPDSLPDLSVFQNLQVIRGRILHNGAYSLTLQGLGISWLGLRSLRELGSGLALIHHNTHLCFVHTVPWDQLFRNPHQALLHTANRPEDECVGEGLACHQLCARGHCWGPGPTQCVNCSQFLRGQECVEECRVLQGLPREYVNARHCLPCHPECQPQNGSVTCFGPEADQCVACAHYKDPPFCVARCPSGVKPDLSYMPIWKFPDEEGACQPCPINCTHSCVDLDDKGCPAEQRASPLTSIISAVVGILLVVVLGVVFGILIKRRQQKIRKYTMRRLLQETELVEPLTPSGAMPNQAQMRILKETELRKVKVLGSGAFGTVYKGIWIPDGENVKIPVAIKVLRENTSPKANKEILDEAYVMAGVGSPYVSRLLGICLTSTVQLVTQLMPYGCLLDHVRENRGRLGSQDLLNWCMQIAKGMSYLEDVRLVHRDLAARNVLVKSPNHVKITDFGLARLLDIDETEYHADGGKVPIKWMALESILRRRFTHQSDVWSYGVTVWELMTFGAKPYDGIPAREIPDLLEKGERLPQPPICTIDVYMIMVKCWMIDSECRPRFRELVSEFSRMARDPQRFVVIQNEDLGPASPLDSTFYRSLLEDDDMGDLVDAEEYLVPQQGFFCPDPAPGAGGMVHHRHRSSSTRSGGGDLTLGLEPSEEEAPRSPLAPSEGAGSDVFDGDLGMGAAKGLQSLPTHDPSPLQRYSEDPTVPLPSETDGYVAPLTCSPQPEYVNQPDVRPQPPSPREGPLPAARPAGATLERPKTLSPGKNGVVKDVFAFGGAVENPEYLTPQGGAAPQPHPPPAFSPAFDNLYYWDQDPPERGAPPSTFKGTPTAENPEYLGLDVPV
Returns: string. Value is class 1 if measured Her2 level is below 90%, and class 0 if it is greater than or equal to it.

COMPOUND	CATEGORY LABEL
CCOc1ccccc1C1CC(=O)Nc2cc3c(cc21)OCO3 (stereo unspecified)	class 1
CCOc1ccc2nc(NC(=O)C3CCCN(S(=O)(=O)c4c(C)noc4C)C3)sc2c1 (stereo unspecified)	class 1
O=C(Cn1c(C(=O)NCC2CCCO2)cc2sccc21)c1ccccc1 (stereo unspecified)	class 0
COc1c2ccoc2nc2c(OC)c(OCC(O)C(C)(C)O)ccc12 (stereo unspecified)	class 0
CN(C)CC(=O)N1c2ccccc2CCc2ccc(NC(=O)c3ccc(N)cc3)cc21	class 0
COc1ccccc1NC(=O)CC(NCc1ccccc1)C(=O)O (stereo unspecified)	class 1
CCC(=O)N1CCc2cc(S(=O)(=O)CCC(=O)Nc3nc(C)cs3)ccc21	class 1
Cc1ccc(C)c(-n2c(Cc3cc(=O)[nH]c(=O)[nH]3)nnc2SCC(=O)NCc2ccco2)c1	class 0

Please examine the following record next.
Challenge: Is the reported Her2 level for CC1=C(C(=O)OCC(C)C)C(c2cc3c(cc2Br)OCO3)NC(=O)N1C (stereo unspecified) strictly below 90%?
Response given: class 1

###

experiment: HUVEC growth inhibition – cell-based, human, primary screen (AID 575); settings: HUVEC proliferation, CellTiter-Glo luminescence, 72 h; at 10 µM; active compounds read low;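 further: 100% = median of untreated cell wells with 0.1% DMSO on each plate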
READOUT TYPE: viability (%)
Give bare numbers, in %.

// below: answered compounds
COMPOUND	READOUT TYPE	UNIT NAME	RESULT VALUE
CSC(=O)CC(=O)NC(=O)c1ccccc1	viability	%	108
O=C(O)/C=C/c1ccc(O)c(O)c1	viability	%	69
COc1ccc(C(NC(C)=O)c2ccc3cccnc3c2O)c(OC)c1 (stereo not given)	viability	%	3.65
CCOC(=O)N1CCC(N2C(=O)c3ccccc3C2Nc2cccnc2)CC1 (stereo not given)	viability	%	112
Cc1cc(C)n(CCCNC(=O)c2ccc(S(=O)(=O)NCc3ccco3)cc2)n1	viability	%	97.6

Give viability for each of the items listed below.
1. CN(C)c1ccc(NC(=O)Nc2cccc(Cl)c2)cc1
2. Nc1nc(C(=O)N2CCOCC2)nn1S(=O)(=O)c1ccc(Cl)cc1
3. CC(C)(C)NC(=O)C(c1ccco1)N(C(=O)Cn1nnc(-c2ccc(F)cc2)n1)c1ccccc1 (stereo not given)
4. COc1ccc(CCNc2oc(-c3ccccc3OC)nc2C#N)cc1
5. Cc1csc2ncc(C(=O)Nc3ccccc3Cl)c(=O)n12
6. O=C(Nc1ccc2c(c1)OCO2)C(c1ccccc1)N1CCC2(CC1)OCCO2 (stereo not given)

Response given:
99.9
99.1
101
86.4
66.8
82.6

###

test: growth suppression of yeast trafficking mutant, preliminary HTS, modulators of trafficking downstream of Golgi apparatus project, 1536-format plate, OD 615 nm (AID 637); conditions: yeast transport mutant growth, absorbance 615 nm, 18 h; active compounds read high
Activity calls are given as the source filed them. Rule as the data show it: active = inhibition above about 30%; inactive = the rest.
Kindly supply the reported inhibition values for the records listed here.

MOLECULE	inhibition
COc1ccc(NC(=O)N2CCC(O)(c3cccnc3)CC2)c(OC)c1	-1.11% (inactive)
Clc1ccc(C2=Nn3c(nnc3-c3n[nH]c4c3CCC4)SC2)cc1Cl	6.77% (inactive)
COC(=O)c1[nH]c2c(c1C)C(=O)CC(c1cccs1)C2 (stereo unspecified)	4.13% (inactive)
O=C(Nc1ccccc1)N1CCC(c2ccccc2)C1 (stereo unspecified)	4.92% (inactive)
C1=C(CCNc2ncnc3c2cnn3-c2ccccc2)CCCC1	0.91% (inactive)

As a next step, examine the molecule that follows.
Challenge: Consider the molecule COC(=O)CCC(NC(=O)c1cc(-c2ccc3c(c2)OCCO3)oc1C)C(=O)OC (stereo unspecified) and give its measured inhibition.
Response given: 0.81% (inactive)
